Test system: Arthrodermataceae
procedureText: Antifungal activity against dermatophytes at 28 degC after 5 days by broth microdilution test
Values of MFC90 strictly less than 30 µg/mL map to t, and values of at least 30 µg/mL map to f.

See these solved cases before continuing.
compound	assignedLabel
Cc1ccc(C(CCn2ccnc2)Oc2ccc(Cl)cc2)cc1 (stereo not drawn)	f
Cc1ccc(OC(CCn2ccnc2)c2ccc(Cl)cc2)cc1 (stereo not drawn)	f
Cc1ccc(C(CCn2cncn2)Oc2ccc(Cl)cc2Cl)cc1 (stereo not drawn)	f

Input Clc1ccc(OC(CCn2ccnc2)c2ccccc2)cc1 (stereo not drawn) ; condition: MFC90 strictly below 30 µg/mL. Does it hold?
f

Input CNCCC(Oc1ccc(C(F)(F)F)cc1)c1ccccc1 (stereo not drawn) [FLUOXETINE] ; condition: MFC90 strictly below 30 µg/mL. Does it hold?
f

Input C[C@@H](c1ncncc1F)[C@](O)(Cn1cncn1)c1ccc(F)cc1F [VORICONAZOLE] ; condition: MFC90 strictly below 30 µg/mL. Does it hold?
t

Input CCC(C)n1ncn(-c2ccc(N3CCN(c4ccc(OC[C@@H]5CO[C@@](Cn6cncn6)(c6ccc(Cl)cc6Cl)O5)cc4)CC3)cc2)c1=O (stereo partly drawn) [ITRACONAZOLE] ; condition: MFC90 strictly below 30 µg/mL. Does it hold?
t

Input c1ccc(OC(CCn2ccnc2)c2ccccc2)cc1 (stereo not drawn) ; condition: MFC90 strictly below 30 µg/mL. Does it hold?
f

Input Cc1ccc(OC(CCn2ccnc2)c2ccccc2)cc1 (racemic) ; condition: MFC90 strictly below 30 µg/mL. Does it hold?
f

Input CC(C)(C)c1ccc(OC(CCn2ccnc2)c2ccc(Cl)cc2)cc1 (stereo not drawn) ; condition: MFC90 strictly below 30 µg/mL. Does it hold?
f

Input Clc1ccc(C(CCn2cncn2)Oc2ccc(Cl)cc2Cl)cc1 (stereo not drawn) ; condition: MFC90 strictly below 30 µg/mL. Does it hold?
f

Input Cc1ccc(OC(CCn2ccnc2)c2ccc(Cl)cc2)c(C)c1 (stereo not drawn) ; condition: MFC90 strictly below 30 µg/mL. Does it hold?
f

Input Cc1ccc(C(CCn2ccnc2)Oc2ccc(Cl)cc2Cl)cc1 (stereo not drawn) ; condition: MFC90 strictly below 30 µg/mL. Does it hold?
f

====

Tested on: Arthrodermataceae
procedureText: Antifungal activity against dermatophytes at 28 degC after 7 days by broth microdilution test
Type: functional
protocolConditions: 168 h
Please provide measured log10(MIC) for the entries that follow.
Please keep in mind that the values are log10 of MIC expressed in µg/mL.

Use the examples below as a reference point.
compound	measuredProperty	recordedNumber
Fc1ccc(C(CCn2ccnc2)Oc2ccc(Cl)cc2Cl)cc1 (stereo unspecified)	log10(MIC)	1.13
C[C@@H](c1ncncc1F)[C@](O)(Cn1cncn1)c1ccc(F)cc1F	log10(MIC)	-1.52
Cc1ccc(C(CCn2ccnc2)Oc2cc(Cl)cc(Cl)c2)cc1 (stereo unspecified)	log10(MIC)	0.75
Cc1ccc(OC(CCn2ccnc2)c2ccc(C)cc2)cc1 (stereo unspecified)	log10(MIC)	0.90
Clc1ccc(C(CCn2ccnc2)Oc2ccc(Cl)cc2Cl)cc1 (stereo unspecified)	log10(MIC)	0.99

Quote Arthrodermataceae log10(MIC) for entry Clc1ccc(C(CCn2cncn2)Oc2ccc(Cl)cc2Cl)cc1 (stereo unspecified) .
1.02

====

Tested on: Candida albicans
procedureText: Antifungal activity against Candida albicans ATCC 10261 at 35 degC after 48 hrs by broth microdilution test
Type: functional
protocolConditions: Candida albicans, ATCC 10261, 48 h; read-out: MIC90
measuredProperty: MIC90 (µg/mL)
Answers are plain numbers, in µg/mL.

Use the examples below as a reference point.
compound	systemName	MIC90 / µg/mL
CCC(C)n1ncn(-c2ccc(N3CCN(c4ccc(OC[C@@H]5CO[C@@](Cn6cncn6)(c6ccc(Cl)cc6Cl)O5)cc4)CC3)cc2)c1=O (stereo not given in full)	Candida albicans	1
Cc1ccc(C(CCn2ccnc2)Oc2cc(Cl)cc(Cl)c2)cc1 (stereo not given)	Candida albicans	16
Cc1ccc(C(CCn2ccnc2)Oc2ccc(C(C)C)cc2)cc1 (stereo not given)	Candida albicans	32

Specify MIC90 for Cc1ccc(OC(CCn2ccnc2)c2ccc(Cl)cc2)c(C)c1 (stereo not given) and stop.
16

====

Test system: Candida albicans
procedureText: Antifungal activity against fluconazole-sensitive Candida albicans Fe40 at 35 degC after 48 hrs by broth microdilution test
Assay type: functional
Please provide measured MIC for the entries that follow.
Don't forget the unit after the value.

Use the examples below as a reference point.
compound	MIC
CCC(C)n1ncn(-c2ccc(N3CCN(c4ccc(OC[C@@H]5CO[C@@](Cn6cncn6)(c6ccc(Cl)cc6Cl)O5)cc4)CC3)cc2)c1=O (stereo not given in full)	0.031 µg/mL
Cc1ccc(OC(CCn2ccnc2)c2ccc(Cl)cc2)cc1 (stereo not given)	2 µg/mL
Clc1ccc(C(CCn2ccnc2)Oc2c(Cl)cccc2Cl)cc1 (stereo not given)	2 µg/mL
Clc1ccc(OC(CCn2ccnc2)c2ccc(Cl)cc2)cc1 (stereo not given)	4 µg/mL
C[C@@H](c1ncncc1F)[C@](O)(Cn1cncn1)c1ccc(F)cc1F	0.016 µg/mL

Below are some compounds; for each one, tell me its MIC.
1. Clc1ccc(C(CCn2ccnc2)Oc2ccccc2Cl)cc1 (stereo not given)
2. Clc1ccc(OC(CCn2ccnc2)c2ccccc2)c(Cl)c1 (racemic)
3. CC(=O)N1CCN(c2ccc(OCC3COC(Cn4ccnc4)(c4ccc(Cl)cc4Cl)O3)cc2)CC1 (stereo not given)
4. Clc1ccc(C(CCn2ccnc2)Oc2ccc(Cl)cc2Cl)cc1 (stereo not given)
5. Clc1ccc(C(CCn2ccnc2)Oc2ccccc2)cc1 (stereo not given)

["8 µg/mL", "2 µg/mL", "4 µg/mL", "2 µg/mL", "8 µg/mL"]

====

System: Candida albicans
procedureText: Antifungal activity against Candida albicans ATCC 10261 at 35 degC after 48 hrs by broth microdilution test
Format: functional
protocolConditions: Candida albicans, ATCC 10261, 48 h; read-out: MIC90
measuredProperty: MIC90
Don't forget the unit after the value.

compound	measuredProperty	result
Cc1ccc(C(CCn2ccnc2)Oc2ccc(C)cc2C)cc1 (stereo unspecified)	MIC90	64 µg/mL
Clc1cc(Cl)cc(OC(CCn2ccnc2)c2ccccc2)c1 (stereo unspecified)	MIC90	16 µg/mL
Cc1ccc(OC(Cn2ccnc2)c2ccc(Cl)cc2)cc1 (stereo unspecified)	MIC90	32 µg/mL
CCc1ccc(OC(CCn2ccnc2)c2ccc(Cl)cc2)cc1 (stereo unspecified)	MIC90	8 µg/mL
CC(=O)N1CCN(c2ccc(OCC3COC(Cn4ccnc4)(c4ccc(Cl)cc4Cl)O3)cc2)CC1 (stereo unspecified)	MIC90	8 µg/mL

Below are some compounds; for each one, tell me its MIC90.
1. Fc1ccc(C(CCn2ccnc2)Oc2ccccc2)cc1 (stereo unspecified)
2. Cc1ccc(OC(CCCCn2ccnc2)c2ccc(Cl)cc2)cc1 (stereo unspecified)
3. Cc1ccc(C(CCn2ccnc2)Oc2ccc(Cl)cc2C)cc1 (stereo unspecified)

1. 64 µg/mL
2. 32 µg/mL
3. 16 µg/mL

Below are some compounds; for each one, tell me its MIC90.
1. Cc1ccc(OC(CCn2ccnc2)c2ccc(Cl)cc2)cc1 (stereo unspecified)
2. Cc1ccc(C(CCn2ccnc2)Oc2ccccc2)cc1 (stereo unspecified)

1: 4 µg/mL; 2: 32 µg/mL

Specify MIC90 for Clc1ccc(C(CCn2ccnc2)Oc2ccccc2Cl)cc1 (stereo unspecified) and stop.
8 µg/mL

====

Please provide measured CC50 at 24 h for the entries that follow.
procedureText: Cytotoxicity against human U937 cells assessed as reduction of cell viability after 24 hrs by MTT assay
Type: cell-based, U-937
Don't forget the unit after the value.

compound	CC50 at 24 h
Clc1ccc(C(CCn2ccnc2)Oc2c(Cl)cccc2Cl)cc1 (stereo unspecified)	271 µM
Cc1ccc(OC(CCn2ccnc2)c2ccc(Cl)cc2)cc1 (stereo unspecified)	325 µM
Clc1ccc(COC(Cn2ccnc2)c2ccc(Cl)cc2Cl)c(Cl)c1 (stereo unspecified)	120 µM

Below are some compounds; for each one, tell me its CC50 at 24 h.
1. Cc1ccc(OC(CCn2ccnc2)c2ccc(C)cc2)cc1 (stereo unspecified)
2. Clc1ccc(OC(CCn2ccnc2)c2ccccc2)cc1 (stereo unspecified)
3. Clc1ccc(C(CCn2ccnc2)Oc2cc(Cl)cc(Cl)c2)cc1 (stereo unspecified)

1. 263 µM
2. 200 µM
3. 180 µM

====

System: Arthrodermataceae
procedureText: Antifungal activity against dermatophytes at 28 degC after 48 to 96 hrs by broth microdilution test
Please provide measured MFC50 for the entries that follow.
Numbers only, in µg/mL.

Below are some compounds; for each one, tell me its MFC50.
1. CC(=O)N1CCN(c2ccc(OCC3COC(Cn4ccnc4)(c4ccc(Cl)cc4Cl)O3)cc2)CC1 (configuration not stated) [KETOCONAZOLE]
2. c1ccc(OC(CCn2ccnc2)c2ccccc2)cc1 (configuration not stated)
3. Fc1ccc(C(CCn2ccnc2)Oc2c(Cl)cccc2Cl)cc1 (configuration not stated)

1: 8; 2: 64; 3: 16

Below are some compounds; for each one, tell me its MFC50.
1. Clc1ccc(OC(CCn2cncn2)c2ccccc2)c(Cl)c1 (configuration not stated)
2. Cc1ccc(C(CCn2cncn2)Oc2ccc(Cl)cc2Cl)cc1 (configuration not stated)

1: 32; 2: 32

Below are some compounds; for each one, tell me its MFC50.
1. CC(C)(C)c1ccc(OC(CCn2ccnc2)c2ccc(Cl)cc2)cc1 (configuration not stated)
2. Clc1ccc(C(CCn2cncn2)Oc2ccc(Cl)cc2Cl)cc1 (configuration not stated)
3. Clc1ccc(C(CCn2ccnc2)Oc2ccc(Cl)cc2Cl)cc1 (configuration not stated)

1. 16
2. 32
3. 8

Below are some compounds; for each one, tell me its MFC50.
1. Cc1ccc(C(CCn2ccnc2)Oc2cc(Cl)cc(Cl)c2)cc1 (configuration not stated)
2. Clc1ccc(OC(CCn2ccnc2)c2ccccc2)c(Cl)c1 (racemic)
3. Cc1ccc(OC(CCn2ccnc2)c2ccccc2)cc1 (racemic)
4. Cc1ccc(C(CCn2ccnc2)Oc2ccc(Cl)cc2)cc1 (configuration not stated)

16
16
32
32
